assay: Selectivity index, ratio of MIC for cytotoxicity against human HL60 cells to MIC for Trypanocidal activity against bloodstream form of Trypanosoma brucei 427-221a; format: toxicity, cell-based; settings: read-out: Selectivity Index
# Lookup of reported selectivity ratio keyed by entry

// below: answered molecules
SMILES_ENTRY	selectivity ratio
CC[C@@H](C(=O)[C@@H](C)[C@@H](O)[C@H](C)[C@@H]1O[C@@H]([C@@H](CC)C(=O)O)CC[C@@H]1C)[C@H]1O[C@]2(C=C[C@H](N)[C@]3(CC[C@@](C)([C@H]4CC[C@](O)(CC)[C@H](C)O4)O3)O2)[C@H](C)C[C@@H]1C	10
CC[C@@H](C(=O)[C@@H](C)[C@@H](O)[C@H](C)[C@@H]1O[C@@H]([C@@H](CC)C(=O)O)CC[C@@H]1C)[C@H]1O[C@]2(C=C[C@H](NC(=O)Nc3cccc4ccccc34)[C@]3(CC[C@@](C)([C@H]4CC[C@](O)(CC)[C@H](C)O4)O3)O2)[C@H](C)C[C@@H]1C	10
C=CCNC(=S)N[C@H]1C=C[C@]2(O[C@H]([C@@H](CC)C(=O)[C@@H](C)[C@@H](O)[C@H](C)[C@@H]3O[C@@H]([C@@H](CC)C(=O)O)CC[C@@H]3C)[C@@H](C)C[C@H]2C)O[C@@]12CC[C@@](C)([C@H]1CC[C@](O)(CC)[C@H](C)O1)O2	100

Name the recorded selectivity ratio for CCNC(=O)N[C@H]1C=C[C@]2(O[C@H]([C@@H](CC)C(=O)[C@@H](C)[C@@H](O)[C@H](C)[C@@H]3O[C@@H]([C@@H](CC)C(=O)O)CC[C@@H]3C)[C@@H](C)C[C@H]2C)O[C@@]12CC[C@@](C)([C@H]1CC[C@](O)(CC)[C@H](C)O1)O2 .
10

###

assay: Selectivity index, ratio of MIC for cytotoxicity against human HL60 cells to MIC for Trypanocidal activity against bloodstream form of Trypanosoma brucei 427-221a; type: toxicity, cell-based; conditions: read-out: Selectivity Index
READOUT_TYPE: selectivity ratio
# output: bare number, no unit

// below: answered compounds
SMILES_ENTRY	RESULT_VALUE
CC[C@@H](C(=O)[C@@H](C)[C@@H](O)[C@H](C)[C@@H]1O[C@@H]([C@@H](CC)C(=O)O)CC[C@@H]1C)[C@H]1O[C@]2(C=C[C@H](NC(=O)NCc3ccccc3)[C@]3(CC[C@@](C)([C@H]4CC[C@](O)(CC)[C@H](C)O4)O3)O2)[C@H](C)C[C@@H]1C	10
C=CCNC(=O)N[C@H]1C=C[C@]2(O[C@H]([C@@H](CC)C(=O)[C@@H](C)[C@@H](O)[C@H](C)[C@@H]3O[C@@H]([C@@H](CC)C(=O)O)CC[C@@H]3C)[C@@H](C)C[C@H]2C)O[C@@]12CC[C@@](C)([C@H]1CC[C@](O)(CC)[C@H](C)O1)O2	10

Next, consider the following compound.
Name the recorded selectivity ratio for CCCCCCCCNC(=O)N[C@H]1C=C[C@]2(O[C@H]([C@@H](CC)C(=O)[C@@H](C)[C@@H](O)[C@H](C)[C@@H]3O[C@@H]([C@@H](CC)C(=O)O)CC[C@@H]3C)[C@@H](C)C[C@H]2C)O[C@@]12CC[C@@](C)([C@H]1CC[C@](O)(CC)[C@H](C)O1)O2 .
10

###

assay: Cytotoxicity against human HL-60 cells assessed as inhibition of cell growth incubated for 24 hrs and measured at 48 hrs following resazurin challenge by resazurin assay; assay type: toxicity, cell-based
READOUT_TYPE: GI50 at 72 h (µM)
Report the value in µM with no unit label.

// below: answered compounds
SMILES_ENTRY	GI50 at 72 h, µM
CC[C@@H](C(=O)[C@@H](C)[C@@H](O)[C@H](C)[C@@H]1O[C@@H]([C@@H](CC)C(=O)O)CC[C@@H]1C)[C@H]1O[C@]2(C=C[C@H](NC(=O)NCCCl)[C@]3(CC[C@@](C)([C@H]4CC[C@](O)(CC)[C@H](C)O4)O3)O2)[C@H](C)C[C@@H]1C	38.5
CC[C@@H](C(=O)[C@@H](C)[C@@H](O)[C@H](C)[C@@H]1O[C@@H]([C@@H](CC)C(=O)O)CC[C@@H]1C)[C@H]1O[C@]2(C=C[C@H](N)[C@]3(CC[C@@](C)([C@H]4CC[C@](O)(CC)[C@H](C)O4)O3)O2)[C@H](C)C[C@@H]1C	83.2
CC[C@@H](C(=O)[C@@H](C)[C@@H](O)[C@H](C)[C@@H]1O[C@@H]([C@@H](CC)C(=O)O)CC[C@@H]1C)[C@H]1O[C@]2(C=C[C@H](NC(=S)Nc3ccccc3)[C@]3(CC[C@@](C)([C@H]4CC[C@](O)(CC)[C@H](C)O4)O3)O2)[C@H](C)C[C@@H]1C	8.9

Next, consider the following compound.
Name the recorded GI50 at 72 h for CC[C@@H](C(=O)[C@@H](C)[C@@H](O)[C@H](C)[C@@H]1O[C@@H]([C@@H](CC)C(=O)O)CC[C@@H]1C)[C@H]1O[C@]2(C=C[C@H](NC(=O)NCc3ccccc3)[C@]3(CC[C@@](C)([C@H]4CC[C@](O)(CC)[C@H](C)O4)O3)O2)[C@H](C)C[C@@H]1C .
16.7

###

assay: Selectivity index, ratio of MIC for cytotoxicity against human HL60 cells to MIC for Trypanocidal activity against bloodstream form of Trypanosoma brucei 427-221a; format: toxicity, cell-based; details: read-out: Selectivity Index
# Lookup of reported selectivity ratio keyed by entry
# output: bare number, no unit

// below: answered compounds
SMILES_ENTRY	RESULT_VALUE
CCCCNC(=O)N[C@H]1C=C[C@]2(O[C@H]([C@@H](CC)C(=O)[C@@H](C)[C@@H](O)[C@H](C)[C@@H]3O[C@@H]([C@@H](CC)C(=O)O)CC[C@@H]3C)[C@@H](C)C[C@H]2C)O[C@@]12CC[C@@](C)([C@H]1CC[C@](O)(CC)[C@H](C)O1)O2	100
CC[C@@H](C(=O)[C@@H](C)[C@@H](O)[C@H](C)[C@@H]1O[C@@H]([C@@H](CC)C(=O)O)CC[C@@H]1C)[C@H]1O[C@]2(C=C[C@H](NC(=S)Nc3ccccc3)[C@]3(CC[C@@](C)([C@H]4CC[C@](O)(CC)[C@H](C)O4)O3)O2)[C@H](C)C[C@@H]1C	10
CC[C@@H](C(=O)[C@@H](C)[C@@H](O)[C@H](C)[C@@H]1O[C@@H]([C@@H](CC)C(=O)O)CC[C@@H]1C)[C@H]1O[C@]2(C=C[C@H](NC(=O)NCCCl)[C@]3(CC[C@@](C)([C@H]4CC[C@](O)(CC)[C@H](C)O4)O3)O2)[C@H](C)C[C@@H]1C	10

Next, consider the following compound.
Name the recorded selectivity ratio for CCCCNC(=S)N[C@H]1C=C[C@]2(O[C@H]([C@@H](CC)C(=O)[C@@H](C)[C@@H](O)[C@H](C)[C@@H]3O[C@@H]([C@@H](CC)C(=O)O)CC[C@@H]3C)[C@@H](C)C[C@H]2C)O[C@@]12CC[C@@](C)([C@H]1CC[C@](O)(CC)[C@H](C)O1)O2 .
10

###

experiment: Selectivity index, ratio of GI50 for cytotoxicity against human HL60 cells to GI50 for Trypanocidal activity against bloodstream form of Trypanosoma brucei 427-221a; type: toxicity, cell-based; conditions: read-out: RatioGI50
READOUT_TYPE: selectivity ratio
# output: bare number, no unit

COMPOUND	RESULT_VALUE
C=CCNC(=O)N[C@H]1C=C[C@]2(O[C@H]([C@@H](CC)C(=O)[C@@H](C)[C@@H](O)[C@H](C)[C@@H]3O[C@@H]([C@@H](CC)C(=O)O)CC[C@@H]3C)[C@@H](C)C[C@H]2C)O[C@@]12CC[C@@](C)([C@H]1CC[C@](O)(CC)[C@H](C)O1)O2	12

Name the recorded selectivity ratio for CCCCNC(=S)N[C@H]1C=C[C@]2(O[C@H]([C@@H](CC)C(=O)[C@@H](C)[C@@H](O)[C@H](C)[C@@H]3O[C@@H]([C@@H](CC)C(=O)O)CC[C@@H]3C)[C@@H](C)C[C@H]2C)O[C@@]12CC[C@@](C)([C@H]1CC[C@](O)(CC)[C@H](C)O1)O2 .
46.7

Name the recorded selectivity ratio for CC[C@@H](C(=O)[C@@H](C)[C@@H](O)[C@H](C)[C@@H]1O[C@@H]([C@@H](CC)C(=O)O)CC[C@@H]1C)[C@H]1O[C@]2(C=C[C@H](NC(=O)Nc3cccc4ccccc34)[C@]3(CC[C@@](C)([C@H]4CC[C@](O)(CC)[C@H](C)O4)O3)O2)[C@H](C)C[C@@H]1C .
7.1

Name the recorded selectivity ratio for CCCCNC(=O)N[C@H]1C=C[C@]2(O[C@H]([C@@H](CC)C(=O)[C@@H](C)[C@@H](O)[C@H](C)[C@@H]3O[C@@H]([C@@H](CC)C(=O)O)CC[C@@H]3C)[C@@H](C)C[C@H]2C)O[C@@]12CC[C@@](C)([C@H]1CC[C@](O)(CC)[C@H](C)O1)O2 .
55

Name the recorded selectivity ratio for CC[C@@H](C(=O)[C@@H](C)[C@@H](O)[C@H](C)[C@@H]1O[C@@H]([C@@H](CC)C(=O)O)CC[C@@H]1C)[C@H]1O[C@]2(C=C[C@@H](O)[C@]3(CC[C@@](C)([C@H]4CC[C@](O)(CC)[C@H](C)O4)O3)O2)[C@H](C)C[C@@H]1C [SALINOMYCIN] .
74.1

Name the recorded selectivity ratio for CCNC(=S)N[C@H]1C=C[C@]2(O[C@H]([C@@H](CC)C(=O)[C@@H](C)[C@@H](O)[C@H](C)[C@@H]3O[C@@H]([C@@H](CC)C(=O)O)CC[C@@H]3C)[C@@H](C)C[C@H]2C)O[C@@]12CC[C@@](C)([C@H]1CC[C@](O)(CC)[C@H](C)O1)O2 .
56.1
